Molecular target: GSK3α (Homo sapiens, UniProt P49840)
Construct: purchased Carna Biosciences
Sequence (P49840 whole entry): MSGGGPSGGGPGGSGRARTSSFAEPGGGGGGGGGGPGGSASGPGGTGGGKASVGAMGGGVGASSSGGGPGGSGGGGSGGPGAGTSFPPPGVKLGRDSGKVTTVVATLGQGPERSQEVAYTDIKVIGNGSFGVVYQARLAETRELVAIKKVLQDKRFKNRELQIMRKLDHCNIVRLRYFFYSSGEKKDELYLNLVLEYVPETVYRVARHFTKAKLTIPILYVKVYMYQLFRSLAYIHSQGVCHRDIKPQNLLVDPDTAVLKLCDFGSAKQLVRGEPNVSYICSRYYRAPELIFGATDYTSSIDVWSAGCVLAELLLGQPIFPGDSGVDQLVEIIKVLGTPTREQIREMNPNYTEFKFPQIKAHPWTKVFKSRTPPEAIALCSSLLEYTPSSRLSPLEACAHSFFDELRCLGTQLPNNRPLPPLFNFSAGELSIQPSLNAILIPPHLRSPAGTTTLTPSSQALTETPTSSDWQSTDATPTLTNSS
Experiment: Kinase panel profiling at 1 µmol/L (mobility shift assay, Carna)
Format: biochemical
Settings: 1 µmol/L of BTK inhibitor
Reported Percentage inhibition of kinase enzyme activity is given for each of the following compounds.
Write the number in % without appending the unit.

These solved cases illustrate the format of a correct answer.
- CC#CC(=O)N1CCC[C@H]1c1nc(-c2ccc(C(=O)Nc3ccccn3)cc2)c2c(N)nccn12 [acalabrutinib]: 2.47
- O=C(c1ccc(Oc2ccccc2)cc1Cl)c1c[nH]c2ncnc(N[C@@H]3CC[C@@H](CO)OC3)c12 [nemtabrutinib]: -3.85
- C=CC(=O)N1CCC[C@@H](n2nc(-c3ccc(Oc4ccccc4)cc3)c3c(N)ncnc32)C1 [ibrutinib]: 2.24

IN: Tell me Percentage inhibition of kinase enzyme activity reported for COc1ccc(F)cc1C(=O)NCc1ccc(-c2nn([C@@H](C)C(F)(F)F)c(N)c2C(N)=O)cc1 [pirtobrutinib]
OUT: -5.30

---

Biological target: EPHA5 (Homo sapiens, UniProt P54756)
Construct: purchased Carna Biosciences
Sequence (P54756 25-1037): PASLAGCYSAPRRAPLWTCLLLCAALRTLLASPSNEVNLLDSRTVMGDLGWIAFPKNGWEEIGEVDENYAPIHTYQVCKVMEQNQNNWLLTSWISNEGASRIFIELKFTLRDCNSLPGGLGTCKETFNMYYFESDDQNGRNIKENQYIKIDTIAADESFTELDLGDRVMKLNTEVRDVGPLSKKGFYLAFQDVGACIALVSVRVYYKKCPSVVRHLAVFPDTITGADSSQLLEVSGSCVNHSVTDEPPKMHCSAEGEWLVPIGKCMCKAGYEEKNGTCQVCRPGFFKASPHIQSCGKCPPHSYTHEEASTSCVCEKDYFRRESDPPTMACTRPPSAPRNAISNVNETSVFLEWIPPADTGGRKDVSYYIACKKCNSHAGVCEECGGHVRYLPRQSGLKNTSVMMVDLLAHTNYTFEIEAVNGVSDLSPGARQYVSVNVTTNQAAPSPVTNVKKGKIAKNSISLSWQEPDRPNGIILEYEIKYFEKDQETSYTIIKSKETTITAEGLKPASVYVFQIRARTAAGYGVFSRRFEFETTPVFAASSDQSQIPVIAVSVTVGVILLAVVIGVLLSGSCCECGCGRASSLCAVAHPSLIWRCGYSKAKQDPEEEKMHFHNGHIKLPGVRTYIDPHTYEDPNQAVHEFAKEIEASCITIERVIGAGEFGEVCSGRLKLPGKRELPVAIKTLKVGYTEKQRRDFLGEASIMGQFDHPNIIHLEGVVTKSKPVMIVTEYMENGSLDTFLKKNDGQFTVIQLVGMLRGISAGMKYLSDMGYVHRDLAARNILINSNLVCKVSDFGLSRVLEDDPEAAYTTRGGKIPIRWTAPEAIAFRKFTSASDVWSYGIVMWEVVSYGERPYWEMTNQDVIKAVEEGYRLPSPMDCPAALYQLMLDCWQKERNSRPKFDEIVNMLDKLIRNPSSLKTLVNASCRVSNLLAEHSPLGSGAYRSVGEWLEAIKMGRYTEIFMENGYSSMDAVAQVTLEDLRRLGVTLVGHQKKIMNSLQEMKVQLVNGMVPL
Assay: Kinase panel profiling at 1 µmol/L (mobility shift assay, Carna)
Type: biochemical
Conditions: 1 µmol/L of BTK inhibitor
Reported Percentage inhibition of kinase enzyme activity is given for each of the following compounds.
Write the number in % without appending the unit.

- CC#CC(=O)N1CCC[C@H]1c1nc(-c2ccc(C(=O)Nc3ccccn3)cc2)c2c(N)nccn12: -1.17
- COc1ccc(F)cc1C(=O)NCc1ccc(-c2nn([C@@H](C)C(F)(F)F)c(N)c2C(N)=O)cc1: 0.45
- C=CC(=O)N1CCC[C@@H](n2nc(-c3ccc(Oc4ccccc4)cc3)c3c(N)ncnc32)C1: 25.73
- C=CC(=O)N1CCC([C@@H]2CCNc3c(C(N)=O)c(-c4ccc(Oc5ccccc5)cc4)nn32)CC1: 13.96

IN: Tell me Percentage inhibition of kinase enzyme activity reported for O=C(c1ccc(Oc2ccccc2)cc1Cl)c1c[nH]c2ncnc(N[C@@H]3CC[C@@H](CO)OC3)c12
OUT: 100.38

---

Target: DYRK1A (Homo sapiens)
Construct: purchased Carna Biosciences
Experiment: Kinase panel profiling at 1 µmol/L (mobility shift assay, Carna)
Type: biochemical
Conditions: 1 µmol/L of BTK inhibitor
quantityName: Percentage inhibition of kinase enzyme activity (%)
Write the number in % without appending the unit.

IN: System DYRK1A (Homo sapiens). Read-out Percentage inhibition of kinase enzyme activity. Item CC#CC(=O)N1CCC[C@H]1c1nc(-c2ccc(C(=O)Nc3ccccn3)cc2)c2c(N)nccn12 [acalabrutinib] . Report value.
OUT: -4.57

IN: System DYRK1A (Homo sapiens). Read-out Percentage inhibition of kinase enzyme activity. Item COc1ccc(F)cc1C(=O)NCc1ccc(-c2nn([C@@H](C)C(F)(F)F)c(N)c2C(N)=O)cc1 [pirtobrutinib] . Report value.
OUT: -2.78

IN: System DYRK1A (Homo sapiens). Read-out Percentage inhibition of kinase enzyme activity. Item C=CC(=O)N1CCC[C@@H](n2nc(-c3ccc(Oc4ccccc4)cc3)c3c(N)ncnc32)C1 [ibrutinib] . Report value.
OUT: -3.54

IN: System DYRK1A (Homo sapiens). Read-out Percentage inhibition of kinase enzyme activity. Item O=C(c1ccc(Oc2ccccc2)cc1Cl)c1c[nH]c2ncnc(N[C@@H]3CC[C@@H](CO)OC3)c12 [nemtabrutinib] . Report value.
OUT: -2.18
